molecular target: tubulin (Sus scrofa, UniProt P02550+P02554); construct: Tubulin is purified from pig brain according to published methods; assay: Evaluation of the inhibition of tubulin polymerization (turbidimetry); settings: tubulin 10 μm (1 mg/ml), 37° C., turbidity at 350 nm; concentration that inhibits the rate of polymerization by 50%; read-out: Inhibition of tubulin polymerization IC 50 (μm)
Sequence (P02550 whole entry): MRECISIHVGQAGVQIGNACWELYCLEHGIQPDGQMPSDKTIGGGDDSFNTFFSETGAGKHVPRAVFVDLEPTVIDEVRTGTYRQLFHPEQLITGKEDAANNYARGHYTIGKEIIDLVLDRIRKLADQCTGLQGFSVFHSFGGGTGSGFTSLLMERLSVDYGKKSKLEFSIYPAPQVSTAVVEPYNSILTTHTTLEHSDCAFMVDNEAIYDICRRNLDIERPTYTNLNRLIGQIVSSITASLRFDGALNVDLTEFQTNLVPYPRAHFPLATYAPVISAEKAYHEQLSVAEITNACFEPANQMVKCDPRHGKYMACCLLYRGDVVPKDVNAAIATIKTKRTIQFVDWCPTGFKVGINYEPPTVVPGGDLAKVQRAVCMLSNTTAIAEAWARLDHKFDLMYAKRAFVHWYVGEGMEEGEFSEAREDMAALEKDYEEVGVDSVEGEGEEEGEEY
Sequence (P02554 whole entry): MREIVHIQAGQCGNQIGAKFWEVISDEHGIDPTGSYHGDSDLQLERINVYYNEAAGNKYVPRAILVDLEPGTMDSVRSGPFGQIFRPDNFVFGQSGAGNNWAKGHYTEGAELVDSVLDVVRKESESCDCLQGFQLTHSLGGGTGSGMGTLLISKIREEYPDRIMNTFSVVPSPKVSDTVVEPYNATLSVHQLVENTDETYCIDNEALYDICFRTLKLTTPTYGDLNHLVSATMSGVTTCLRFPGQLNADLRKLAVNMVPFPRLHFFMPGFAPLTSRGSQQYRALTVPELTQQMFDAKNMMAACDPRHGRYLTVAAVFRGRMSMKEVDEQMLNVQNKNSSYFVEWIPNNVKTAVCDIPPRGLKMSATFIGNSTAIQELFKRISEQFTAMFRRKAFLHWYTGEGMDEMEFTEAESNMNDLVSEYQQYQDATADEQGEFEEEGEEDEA
pIC50: −log10 of the molar value.
quantity: pIC50

Example results:
CCOc1ccccc1N1CCN(C(=O)c2cc(C)nn2-c2cccc(F)c2)CC1
5.15
Cc1cc(C(=O)N2CCN(c3ccccc3C)CC2)n(-c2ccccc2F)n1
4.82
N#Cc1cccc(-n2nc(C(F)(F)F)cc2C(=O)N2CCN(c3cccc(Cl)c3)CC2)c1
5.44
Cc1cccc(-n2nc(C)cc2C(=O)N2CCN(c3ccc(F)cc3)CC2)c1
5.10
Cc1cc(C(=O)N2CCN(c3cccc(Cl)c3Cl)CC2)n(-c2cccc(Cl)c2)n1
4.90
O=C(c1cc(-c2cccs2)nn1-c1ccccc1)N1CCN(c2cccc(Cl)c2)CC1
5.77

[1] Cc1cccc(N2CCN(C(=O)c3cc(C)nn3-c3cccc(Cl)c3)CC2)c1
[2] Cc1cc(C(=O)N2CCN(c3ccccc3F)CC2)n(-c2ccccc2)n1
Q: Min pIC50? 1 | 2 Give the label under which the chosen entry appears.
A: 2

[1] Cc1cc(C(=O)N2CCN(c3cccc(Cl)c3)CC2)n(-c2cccnc2)n1
[2] Cc1cc(C(=O)N2CCN(c3cccc(S(C)(=O)=O)c3)CC2)n(-c2ccccc2)n1
Q: Which item exceeds the other in pIC50, 1 or 2 ? Give the label under which the chosen entry appears.
A: 1
(1: 5.85, 2: 5.19)

[a] COc1cc(OC)cc(N2CCN(C(=O)c3cc(-c4ccc(F)cc4)nn3-c3ccccc3)CC2)c1
[b] COc1cc(OC)cc(N2CCN(C(=O)c3cc(C)nn3-c3cccnc3)CC2)c1
Q: Which item exceeds the other in pIC50, a or b ? Give the label under which the chosen entry appears.
A: b

----------
test system: HCT116 cells; test: Inhibition of proliferation of the human colon tumor line HCT116 ([14C]-thymidine incorporation); format: cell-based; conditions: Homo sapiens, HCT-116, 48 h, 48 hours at 37° C., read-out: Inhibition of HCT116 proliferation IC 50 (μm)
pIC50: −log10 of the molar value. Structures can show the parent of a compound that is named as a salt.
quantity: pIC50

COc1cc(OC)cc(N2CCN(C(=O)c3cc(CO)nn3-c3ccccc3)CC2)c1 [Example E73]
8.16

[A] Cc1cc(C(=O)N2CCN(c3cccc(C(F)(F)F)c3)CC2)n(-c2ccc(F)cc2)n1 [3/23]
[B] COc1ccccc1N1CCN(C(=O)c2cc(C)nn2-c2ccccc2F)CC1 [3/85]
Q: Which item exceeds the other in pIC50, A or B ? Give the label under which the chosen entry appears.
A: B

[P] CNc1cccc(N2CCN(C(=O)c3cc(C)nn3-c3ccccc3)CC2)c1 [Example E34]
[Q] Cc1cc(C(=O)N2CCN(c3cccc(Cl)c3)CC2)n(-c2ccc(F)cc2)n1 [3/38]
[R] Cc1cc(C(=O)N2CCN(c3cccc(C#N)c3)CC2)n(-c2ccccc2)n1 [Example E10]
[S] Cc1cc(C(=O)N2CCN(c3cccc4ccccc34)CC2)n(-c2cccc(F)c2)n1 [3/20]
[T] Cc1cc(C(=O)N2CCN(c3ccccc3)CC2)n(-c2ccccc2)n1 [3/6]
Q: Please put the entries in order of rising pIC50. When ranking, write the labels in the order the request describes.
A: S, Q, T, P, R
(S: 5.73, Q: 6.47, T: 6.75, P: 7.85, R: 8.31)

[a] Cc1cc(C(=O)N2CCN(c3cccc(Cl)c3)CC2)n(-c2cccc(F)c2)n1 [3/18]
[b] O=C(c1cccn1-c1ccccc1)N1CCN(c2cccnc2)CC1 [Example E46, hydrochloride]
Q: Which item exceeds the other in pIC50, a or b ? Give the label under which the chosen entry appears.
A: a
(a: 7.55, b: 5.91)

[1] COc1ccc(Cl)cc1N1CCN(C(=O)c2cc(C)nn2-c2ccccc2)CC1 [3/83]
[2] CSc1ccccc1N1CCN(C(=O)c2cc(C)nn2-c2cccc(Cl)c2)CC1 [3/26]
[3] Cc1cc(C(=O)N2CCN(c3cccc(Br)c3)CC2)n(-c2ccccc2)n1 [Example E6]
Q: Order the items by recorded pIC50; the first position goes to the largest value. When ranking, write the labels in the order the request describes.
A: 3, 1, 2
(3: 8.92, 1: 8.18, 2: 7.05)

[a] Cc1cc(C(=O)N2CCN(c3ccc4c(c3)OCO4)CC2)n(-c2ccccc2)n1 [Example E12]
[b] Cc1cccc(-n2nc(C)cc2C(=O)N2CCN(c3cccc(C(F)(F)F)c3)CC2)c1 [3/46]
Q: Which item exceeds the other in pIC50, a or b ? Give the label under which the chosen entry appears.
A: a

[I] Cc1ccc(-n2nc(C)cc2C(=O)N2CCN(c3cccc(Cl)c3Cl)CC2)cc1 [3/132]
[II] NC(=O)c1cccc(N2CCN(C(=O)c3cccn3-c3ccccc3)CC2)c1 [Example E57]
[III] Cc1cc(C(=O)N2CCN(c3ccc(Cl)c(Cl)c3)CC2)n(-c2cccc(F)c2)n1 [3/93]
Q: Order the items by recorded pIC50; the first position goes to the largest value. When ranking, write the labels in the order the request describes.
A: III, II, I
(III: 7.49, II: 7.05, I: 5.51)
